SYSTEM: Metabotropic glutamate receptor 1 (Homo sapiens)
Sequence (Q13255 whole entry): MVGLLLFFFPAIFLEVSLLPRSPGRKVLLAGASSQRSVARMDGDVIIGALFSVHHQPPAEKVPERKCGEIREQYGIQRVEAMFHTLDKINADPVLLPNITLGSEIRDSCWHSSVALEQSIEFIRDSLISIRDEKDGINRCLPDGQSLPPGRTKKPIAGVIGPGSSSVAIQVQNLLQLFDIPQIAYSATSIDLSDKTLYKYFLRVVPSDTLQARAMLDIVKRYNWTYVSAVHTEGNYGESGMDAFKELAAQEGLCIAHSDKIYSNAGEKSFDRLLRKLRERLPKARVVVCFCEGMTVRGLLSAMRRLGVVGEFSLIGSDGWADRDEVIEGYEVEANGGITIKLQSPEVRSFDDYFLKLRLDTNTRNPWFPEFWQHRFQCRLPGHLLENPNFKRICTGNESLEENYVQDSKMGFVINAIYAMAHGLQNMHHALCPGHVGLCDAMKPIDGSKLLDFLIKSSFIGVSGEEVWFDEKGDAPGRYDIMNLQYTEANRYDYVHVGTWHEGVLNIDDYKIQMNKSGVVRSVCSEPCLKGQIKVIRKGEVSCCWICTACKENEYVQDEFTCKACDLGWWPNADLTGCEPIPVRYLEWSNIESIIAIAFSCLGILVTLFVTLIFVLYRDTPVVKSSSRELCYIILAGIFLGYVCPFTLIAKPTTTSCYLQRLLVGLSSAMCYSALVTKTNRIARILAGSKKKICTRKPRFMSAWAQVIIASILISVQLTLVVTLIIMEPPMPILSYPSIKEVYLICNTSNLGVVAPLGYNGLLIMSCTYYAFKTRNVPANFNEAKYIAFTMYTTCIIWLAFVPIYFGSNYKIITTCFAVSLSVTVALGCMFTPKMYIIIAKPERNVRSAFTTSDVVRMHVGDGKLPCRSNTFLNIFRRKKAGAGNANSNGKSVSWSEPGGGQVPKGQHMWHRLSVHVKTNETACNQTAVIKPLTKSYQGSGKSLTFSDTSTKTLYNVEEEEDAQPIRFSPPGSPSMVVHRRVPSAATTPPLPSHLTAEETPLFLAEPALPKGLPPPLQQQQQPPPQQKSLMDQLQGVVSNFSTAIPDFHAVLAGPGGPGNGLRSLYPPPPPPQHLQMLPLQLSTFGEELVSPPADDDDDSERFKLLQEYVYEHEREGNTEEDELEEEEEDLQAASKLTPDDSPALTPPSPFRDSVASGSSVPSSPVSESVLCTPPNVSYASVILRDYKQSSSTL
MEASUREMENT_NOTES: Negative allosteric modulation of human mGlu1 receptor expressed in HEK293A TREx cells assessed as calcium flux after 45 mins
pIC50: −log10 of the molar value.
READOUT_NAME: pIC50

Examples with answers:
O=C(N1C[C@@H]2CN(c3ccc(F)cn3)C[C@@H]2C1)C12CC3CC(CC(C3)C1)C2
6.32
N#Cc1ccccc1N1C[C@H]2CN(C(=O)C34CC5CC(CC(C5)C3)C4)C[C@H]2C1
6.73
N#Cc1ncccc1N1C[C@H]2CN(C(=O)C34CC5CC(CC(C5)C3)C4)C[C@H]2C1
6.26

A: CC1(C(=O)N2C[C@@H]3CN(c4ccccn4)C[C@@H]3C2)CCCCC1
B: O=C(N1C[C@@H]2CN(c3ncccc3F)C[C@@H]2C1)C12CC3CC(CC(C3)C1)C2
Would you kindly point out which of A and B has the smaller pIC50 figure? Your answer should be the label attached to the chosen record.
A

P: O=C(N1C[C@@H]2CN(c3ccccn3)C[C@@H]2C1)N1CCC2(CCCC2)C1
Q: O=C(N1C[C@@H]2CN(c3cnccn3)C[C@@H]2C1)C12CC3CC(CC(C3)C1)C2
Would you kindly point out which of P and Q has the smaller pIC50 figure? Your answer should be the label attached to the chosen record.
Q
